Tested on: MOLT-4 leukemia
PROTOCOL_DETAILS: NCI tumour cell line growth inhibition, 48 h; in the data active = GI50 below about 0.43 µM; inactive = the rest
Classes used: yes = active, no = inactive

- COc1ccc(C(=O)COc2cccc(/C=C3\CSc4ccccc4C3=O)c2)cc1: no
- C/C(=C\c1ccn(-c2ccc(N)c(F)c2)n1)[C@@H]1C[C@@H]2O[C@]2(C)CCC[C@H](C)[C@H](O)[C@@H](C)C(=O)C(C)(C)[C@@H](O)CC(=O)O1: yes
- Cc1ccc(/C=C2/SC(Nc3nc(-c4nc(NC5=NC(=O)/C(=C\c6ccc(C)cc6)S5)sc4C)c(C)s3)=NC2=O)cc1: no
- Cn1ccc2c(c1=O)C(=O)c1nccc3c1c-2nc1ccccc13: no
- CC(C)C[C@H](NC(=O)[C@H]1O[C@@H]1C(=O)O)C(=O)NCCc1ccc(O)cc1: no
- NC(=NC1CCCCCCC1)c1ccc(N2CCN(c3ccc(C(N)=NC4CCCCCCC4)cc3)CC2)cc1: no
- COc1ccc(-c2cnnn2-c2cc(OC)c3c(c2)OCO3)cc1: yes
- CC1=CCC(OC(=O)C(C)(C)CCC(O)(C(=O)OC2(C(C)C)CCC3(C)OC3C2)C(C)C)(C(C)C)CC1 (stereo not drawn): yes
